This listing pairs compounds with measured EC50.
assayed_system: F508del/F508del CFTR (Homo sapiens, UniProt P13569, DEL508-508)
Construct: cells isolated from CF patients with the homozygous mutation; endogenous in cells
Sequence (P13569 with tags, fused parts or gaps DEL508-508): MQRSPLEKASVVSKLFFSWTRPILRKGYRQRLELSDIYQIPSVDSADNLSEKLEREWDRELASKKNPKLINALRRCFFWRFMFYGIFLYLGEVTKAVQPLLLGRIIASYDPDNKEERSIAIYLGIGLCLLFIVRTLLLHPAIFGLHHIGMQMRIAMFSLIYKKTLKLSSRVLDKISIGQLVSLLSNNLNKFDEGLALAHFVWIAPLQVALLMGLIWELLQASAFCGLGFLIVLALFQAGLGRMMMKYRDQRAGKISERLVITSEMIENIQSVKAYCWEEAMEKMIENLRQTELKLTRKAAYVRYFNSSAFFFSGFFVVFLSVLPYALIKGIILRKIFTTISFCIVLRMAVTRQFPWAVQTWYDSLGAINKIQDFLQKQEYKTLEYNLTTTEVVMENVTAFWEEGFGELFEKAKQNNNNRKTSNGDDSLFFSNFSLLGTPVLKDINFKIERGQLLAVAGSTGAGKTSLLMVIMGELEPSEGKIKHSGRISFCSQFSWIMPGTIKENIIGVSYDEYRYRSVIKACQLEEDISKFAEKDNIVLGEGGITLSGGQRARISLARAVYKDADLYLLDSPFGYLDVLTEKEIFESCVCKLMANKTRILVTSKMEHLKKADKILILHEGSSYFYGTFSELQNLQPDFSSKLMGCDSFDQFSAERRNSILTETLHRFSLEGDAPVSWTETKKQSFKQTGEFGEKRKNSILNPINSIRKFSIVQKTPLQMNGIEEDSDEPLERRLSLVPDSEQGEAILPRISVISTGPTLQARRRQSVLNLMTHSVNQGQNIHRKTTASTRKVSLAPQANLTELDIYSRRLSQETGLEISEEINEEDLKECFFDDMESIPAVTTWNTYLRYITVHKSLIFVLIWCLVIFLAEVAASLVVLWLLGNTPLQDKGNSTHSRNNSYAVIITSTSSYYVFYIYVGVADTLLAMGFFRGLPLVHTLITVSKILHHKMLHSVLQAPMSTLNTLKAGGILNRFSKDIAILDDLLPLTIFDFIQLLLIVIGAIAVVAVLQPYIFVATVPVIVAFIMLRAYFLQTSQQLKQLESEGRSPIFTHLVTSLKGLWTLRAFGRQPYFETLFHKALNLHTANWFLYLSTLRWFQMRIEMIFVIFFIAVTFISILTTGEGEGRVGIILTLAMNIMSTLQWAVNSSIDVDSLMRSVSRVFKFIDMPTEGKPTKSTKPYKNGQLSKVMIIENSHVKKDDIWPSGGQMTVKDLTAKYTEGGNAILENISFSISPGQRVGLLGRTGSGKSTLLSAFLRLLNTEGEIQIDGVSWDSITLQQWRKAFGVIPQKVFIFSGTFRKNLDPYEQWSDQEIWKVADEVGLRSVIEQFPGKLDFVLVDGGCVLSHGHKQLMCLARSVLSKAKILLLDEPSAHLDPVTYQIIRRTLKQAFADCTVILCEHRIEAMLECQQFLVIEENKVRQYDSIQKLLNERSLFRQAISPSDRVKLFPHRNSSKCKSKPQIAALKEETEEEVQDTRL
run_description: Transepithelial Clamp Circuit (TECC-24) conductance assay on primary human bronchial epithelial cells
condition_notes: primary hBE cells from F508del/F508delCFTR patients; equivalent short circuit current (Ieq); correctors 18-24 hours at 37° C.; with control potentiator; 6 test concentrations

Check out these entries, answers already filled in.
1) Cc1cc(C(=O)O)ccc1[C@H]1C[C@H](NC(=O)C2(c3ccc4c(c3)OC(F)(F)O4)CC2)C[C@@H](c2ccccc2)O1 (single isomer, unassigned) = 200 nM
2) O=C(O)c1cccc([C@H]2C[C@@H](NC(=O)C3(c4ccc5c(c4)OC(F)(F)O5)CC3)C[C@@H](c3ccccc3)O2)c1 (racemic) [Example 24] = 340 nM
3) O=C(O)c1ccc([C@H]2C[C@@H](NC(=O)C3(c4ccc5c(c4)OC(F)(F)O5)CC3)C[C@@H](c3ccccc3)O2)c(F)c1 (racemic) = 140 nM
4) O=C(O)c1ccc([C@H]2C[C@@H](NC(=O)C3(c4ccc5c(c4)OC(F)(F)O5)CC3)CCO2)cc1 (racemic) [Example 14] = 1340 nM
5) Cc1cc(C(=O)O)cc([C@H]2C[C@@H](NC(=O)C3(c4ccc5c(c4)OC(F)(F)O5)CC3)C[C@@H](c3ccccc3)O2)c1 (racemic) = 330 nM

With those in mind, consider the next compound.
Recorded EC50 of "O=C(O)c1cccc([C@H]2C[C@@H](NC(=O)C3(c4ccc5c(c4)OC(F)(F)O5)CC3)CCO2)c1" , please.
1030 nM
